Kindly supply the reported zone of inhibition at 20 µg/mL values for the records listed here.
# System: Staphylococcus aureus
# Procedure Text: Antibacterial activity against Staphylococcus aureus MTCC 96 at 20 ug/ml after 24 hrs by disk diffusion method
# Format: functional
# Condition Notes: MTCC 96, 24 h, read-out: IZ
Entry rule: numbers only, all in mm.

Input line: Quote zone of inhibition at 20 µg/mL with test system Staphylococcus aureus for O=C1O[C@@H](CNS(=O)(=O)c2ccc(F)cc2)CN1c1ccc(N2CCNCC2)c(F)c1
Output line: 17

Input line: Recall the reported zone of inhibition at 20 µg/mL of CC(=O)NC[C@H]1CN(c2ccc(N3CCOCC3)c(F)c2)C(=O)O1 when tested on Staphylococcus aureus.
Output line: 28

Input line: Return reported zone of inhibition at 20 µg/mL for target or system Staphylococcus aureus, item O=C1O[C@@H](CNS(=O)(=O)c2ccc(C(F)(F)F)cc2)CN1c1ccc(N2CCNCC2)c(F)c1 .
Output line: 17

Input line: Lab note: Staphylococcus aureus assay, enter zone of inhibition at 20 µg/mL for O=C1O[C@@H](CNS(=O)(=O)c2cccs2)CN1c1ccc(N2CCOCC2)c(F)c1 here
Output line: 20

Input line: Answer with zone of inhibition at 20 µg/mL of O=C1O[C@@H](CNS(=O)(=O)c2ccc(F)cc2)CN1c1ccc(N2CCSCC2)c(F)c1 measured for Staphylococcus aureus.
Output line: 18
